- System: S. aureus Newman;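 also: first quartile when negative (synergy) and third quartile when positive (antagonism)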
- ASSAY REMARKS: Bliss interaction score (quartile over a dose matrix) (fitness difference); higher = more antagonism (negative = synergy)
ASSAY READOUT: Bliss interaction score

Per the reported S. aureus Newman data, CC(=O)Oc1ccccc1C(=O)O [Acetylsalicylicacid] + CO[C@@]12[C@H](COC(N)=O)C3=C(C(=O)C(C)=C(N)C3=O)N1C[C@@H]1N[C@@H]12 [MitomycinC] has Bliss interaction score of -0.0274

Per the reported S. aureus Newman data, N#CC(C#N)=NNc1cccc(Cl)c1 [CCCP] + CN[C@H](CC(C)C)C(=O)N[C@H]1C(=O)N[C@@H](CC(N)=O)C(=O)N[C@H]2C(=O)N[C@H]3C(=O)N[C@H](C(=O)N[C@H](C(=O)O)c4cc(O)cc(O)c4-c4cc3ccc4O)[C@H](O)c3ccc(c(Cl)c3)Oc3cc2cc(c3O[C@@H]2O[C@H](CO)[C@@H](O)[C@H](O)[C@H]2O[C@H]2C[C@](C)(N)[C@H](O)[C@H](C)O2)Oc2ccc(cc2Cl)[C@H]1O [Vancomycin] has Bliss interaction score of -0.0614

Per the reported S. aureus Newman data, CC(=O)Oc1ccccc1C(=O)O [Acetylsalicylicacid] + COc1c(N2C[C@@H]3CCCN[C@@H]3C2)c(F)cc2c(=O)c(C(=O)O)cn(C3CC3)c12 [Moxifloxacin] has Bliss interaction score of 0.114

Per the reported S. aureus Newman data, CO/N=C(\C(=O)N[C@@H]1C(=O)N2C(C(=O)O)=C(COC(C)=O)CS[C@H]12)c1csc(N)n1 [Cefotaxime] + CO[C@@]12[C@H](COC(N)=O)C3=C(C(=O)C(C)=C(N)C3=O)N1C[C@@H]1N[C@@H]12 [MitomycinC] has Bliss interaction score of 0.0256

Per the reported S. aureus Newman data, C[C@@H]1O[C@@H]1P(=O)(O)O [Fosfomycin] + CN[C@@H]1[C@H](O[C@H]2[C@H](O[C@H]3[C@H](O)[C@@H](O)[C@H](N=C(N)N)[C@@H](O)[C@@H]3N=C(N)N)O[C@@H](C)[C@]2(O)C=O)O[C@@H](CO)[C@H](O)[C@H]1O [Streptomycin] has Bliss interaction score of -0.106

Per the reported S. aureus Newman data, Cc1ncc([N+](=O)[O-])n1CCO [Metronidazole] + Cc1cc(NS(=O)(=O)c2ccc(N)cc2)no1 [Sulfamethoxazol] has Bliss interaction score of 0.0439

Per the reported S. aureus Newman data, CO/N=C(\C(=O)N[C@@H]1C(=O)N2C(C(=O)O)=C(COC(C)=O)CS[C@H]12)c1csc(N)n1 [Cefotaxime] + C[n+]1ccc(-c2cc[n+](C)cc2)cc1 [Paraquat] has Bliss interaction score of -0.0297

Per the reported S. aureus Newman data, CN(C)[C@@H]1C(O)=C(C(N)=O)C(=O)[C@@]2(O)C(O)=C3C(=O)c4c(O)ccc(Cl)c4[C@@](C)(O)[C@H]3C[C@@H]12 [Clortetracycline] + CC(=O)NC[C@H]1CN(c2ccc(N3CCOCC3)c(F)c2)C(=O)O1 [Linezolid] has Bliss interaction score of -0.0457

Per the reported S. aureus Newman data, COc1cccc2c1C(=O)c1c(O)c3c(c(O)c1C2=O)C[C@@](O)(C(=O)CO)C[C@@H]3O[C@H]1C[C@H](N)[C@H](O)[C@H](C)O1 [Doxorubicin] + CCC[C@@H]1C[C@@H](C(=O)N[C@@H]([C@H]2O[C@H](SC)[C@H](O)[C@@H](O)[C@H]2O)[C@@H](C)O)N(C)C1 [Lincomycin] has Bliss interaction score of 0.164

Per the reported S. aureus Newman data, CO/N=C(\C(=O)N[C@@H]1C(=O)N2C(C(=O)O)=C(COC(C)=O)CS[C@H]12)c1csc(N)n1 [Cefotaxime] + CC[C@H]1OC(=O)[C@H](C)C(=O)[C@H](C)[C@@H](O[C@@H]2O[C@H](C)C[C@H](N(C)C)[C@H]2O)[C@](C)(OC)C[C@@H](C)C(=O)[C@H](C)[C@H]2N(CCCCn3cnc(-c4cccnc4)c3)C(=O)O[C@]12C [Telithromycin] has Bliss interaction score of -0.033

Per the reported S. aureus Newman data, C[C@H]1c2cccc(O)c2C(=O)C2=C(O)[C@]3(O)C(=O)C(C(N)=O)=C(O)[C@@H](N(C)C)[C@@H]3[C@@H](O)[C@@H]21 [Doxycycline] + CO[C@@H]1[C@@H](OC(N)=O)[C@@H](O)[C@H](Oc2ccc3c(O)c(NC(=O)c4ccc(O)c(CC=C(C)C)c4)c(=O)oc3c2C)OC1(C)C [Novobiocin] has Bliss interaction score of 0.0369

Per the reported S. aureus Newman data, COc1ccc(C[C@H](N)C(=O)N[C@H]2[C@@H](O)[C@H](n3cnc4c(N(C)C)ncnc43)O[C@@H]2CO)cc1 [Puromycin] + CO[C@H]1/C=C/O[C@@]2(C)Oc3c(C)c(O)c4c(O)c(c(/C=N/N5CCN(C)CC5)c(O)c4c3C2=O)NC(=O)/C(C)=C\C=C\[C@H](C)[C@H](O)[C@@H](C)[C@@H](O)[C@@H](C)[C@H](OC(C)=O)[C@@H]1C [Rifampicin] has Bliss interaction score of 0.0233

Per the reported S. aureus Newman data, CN(C)[C@@H]1C(O)=C(C(N)=O)C(=O)[C@@]2(O)C(O)=C3C(=O)c4c(O)ccc(Cl)c4[C@@](C)(O)[C@H]3C[C@@H]12 [Clortetracycline] + CO[C@@H]1[C@@H](OC(N)=O)[C@@H](O)[C@H](Oc2ccc3c(O)c(NC(=O)c4ccc(O)c(CC=C(C)C)c4)c(=O)oc3c2C)OC1(C)C [Novobiocin] has Bliss interaction score of 0.0791

Per the reported S. aureus Newman data, CC(=O)Oc1ccccc1C(=O)O [Acetylsalicylicacid] + CCN(CC)CCOC(=O)c1ccc(N)cc1 [Procaine] has Bliss interaction score of -0.0687

Per the reported S. aureus Newman data, COc1cccc2c1C(=O)c1c(O)c3c(c(O)c1C2=O)C[C@@](O)(C(=O)CO)C[C@@H]3O[C@H]1C[C@H](N)[C@H](O)[C@H](C)O1 [Doxorubicin] + C[C@@H](O)[C@H]1C(=O)N2C(C(=O)O)=C(SCCNC=N)C[C@H]12 [Imipenem] has Bliss interaction score of -0.0256
